# credit: PubChem BioAssay (NCI)

- ASSAY PROCEDURE: NCI Yeast Anticancer Drug Screen. Data for the cln2 rad14 strain (AID 165);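 note: 0% = growth equal to vehicle treated cultures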
- CONDITIONS USED: S. cerevisiae cln2 rad14 strain, at 50.0 µM (retest, dose inferred, filed as 5.0), stronger effect = higher value
This is part of a sample that, as a whole, favours compounds with a hit. Of some 79,000 tested, about 15% had one in any assay.
Measured growth inhibition accompanies every entry in the list below.
Answer format: numeric, % implied, no suffix.

>  <COMPOUND>
O=C(O)CCC/C(=N\Nc1ccccc1)C(=O)O

>  <UNIT DESCRIPTOR>
%

>  <NUMERIC READOUT>
99

$$$$
>  <COMPOUND>
O=S1(=O)CC2C1C1(Cl)OC2(Cl)c2ccccc21 (centres undefined)

>  <UNIT DESCRIPTOR>
%

>  <NUMERIC READOUT>
17

$$$$
>  <COMPOUND>
CCC(=S)N(C)O

>  <UNIT DESCRIPTOR>
%

>  <NUMERIC READOUT>
91

$$$$
>  <COMPOUND>
C1=C(c2ccccc2)[P+](c2ccccc2)(c2ccccc2)C=C(c2ccccc2)[P+]1(c1ccccc1)c1ccccc1

>  <UNIT DESCRIPTOR>
%

>  <NUMERIC READOUT>
98

$$$$

INPUT: Using the record for CC(=O)OC1COC(N2C(=O)C(=O)c3cc(Br)ccc32)C(OC(C)=O)C1OC(C)=O (centres undefined) , state its measured growth inhibition.
OUTPUT: -4

INPUT: Using the record for "O=C(O)c1cc2ccc3cccc4ccc(c1)c2c34" , state its measured growth inhibition.
OUTPUT: 92

INPUT: Using the record for "Fc1ccc(NC(=S)SCc2ccc(Cl)c(Cl)c2)cc1" , state its measured growth inhibition.
OUTPUT: 92

INPUT: Using the record for "COc1ccc(CSC(=S)Nc2ccc(Cl)c([N+](=O)[O-])c2)cc1" , state its measured growth inhibition.
OUTPUT: 97

INPUT: Using the record for "O=c1oc2ccccc2c(O)c1/C=N/C(=S)NCCc1ccccc1" , state its measured growth inhibition.
OUTPUT: 40
